- System: HeLa Kyoto;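 also: HeLa Kyoto cells arrested at G1/S by double thymidine block, proteins quantified by TMT10plex mass spectrometry in mild NP-40 versus SDS extracts, three biological replicates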
- Assay Protocol: solubility in G1/S (NP-40 vs SDS abundance) (log2 ratio); higher = more soluble
- Condition Summary: cell cycle stage: G1/S
Lab note: compare solubility in G1/S (log2) against 0.2. Equal or greater, write Criterion met. Smaller, write Criterion not met.

*Q* Given the entry MRLSWFRVLTVLSICLSAVATATGAEGKRKLQIGVKKRVDHCPIKSRKGDVLHMHYTGKLEDGTEFDSSLPQNQPFVFSLGTGQVIKGWDQGLLGMCEGEKRKLVIPSELGYGERGAPPKIPGGATLVFEVELLKIERRTEL [FKBP2] , answer whether its solubility in G1/S (log2) meets or surpasses 0.2.
*A* Criterion met

*Q* Given the entry MADIDNKEQSELDQDLDDVEEVEEEETGEETKLKARQLTVQMMQNPQILAALQERLDGLVETPTGYIESLPRVVKRRVNALKNLQVKCAQIEAKFYEEVHDLERKYAVLYQPLFDKRFEIINAIYEPTEEECEWKPDEEDEISEELKEKAKIEDEKKDEEKEDPKGIPEFWLTVFKNVDLLSDMVQEHDEPILKHLKDIKVKFSDAGQPMSFVLEFHFEPNEYFTNEVLTKTYRMRSEPDDSDPFSFDGPEIMGCTGCQIDWKKGKNVTLKTIKKKQKHKGRGTVRTVTKTVSNDSFFNFFAPPEVPESGDLDDDAEAILAADFEIGHFLRERIIPRSVLYFTGEAIEDDDDDYDEEGEEADEEGEEEGDEENDPDYDPKKDQNPAECKQQ [NAP1L1] , answer whether its solubility in G1/S (log2) meets or surpasses 0.2.
*A* Criterion met

*Q* Given the entry MGALVIRGIRNFNLENRAEREISKMKPSVAPRHPSTNSLLREQISLYPEVKGEIARKDEKLLSFLKDVYVDSKDPVSSLQVKAAETCQEPKEFRLPKDHHFDMINIKSIPKGKISIVEALTLLNNHKLFPETWTAEKIMQEYQLEQKDVNSLLKYFVTFEVEIFPPEDKKAIRSK [NDUFAF4] , answer whether its solubility in G1/S (log2) meets or surpasses 0.2.
*A* Criterion met

*Q* Given the entry MSSEPPPPPQPPTHQASVGLLDTPRSRERSPSPLRGNVVPSPLPTRRTRTFSATVRASQGPVYKGVCKCFCRSKGHGFITPADGGPDIFLHISDVEGEYVPVEGDEVTYKMCSIPPKNEKLQAVEVVITHLAPGTKHETWSGHVISS [CARHSP1] , answer whether its solubility in G1/S (log2) meets or surpasses 0.2.
*A* Criterion met

*Q* Given the entry MIPLLLAALLCVPAGALTCYGDSGQPVDWFVVYKLPALRGSGEAAQRGLQYKYLDESSGGWRDGRALINSPEGAVGRSLQPLYRSNTSQLAFLLYNDQPPQPSKAQDSSMRGHTKGVLLLDHDGGFWLVHSVPNFPPPASSAAYSWPHSACTYGQTLLCVSFPFAQFSKMGKQLTYTYPWVYNYQLEGIFAQEFPDLENVVKGHHVSQEPWNSSITLTSQAGAVFQSFAKFSKFGDDLYSGWLAAALGTNLQVQFWHKTVGILPSNCSDIWQVLNVNQIAFPGPAGPSFNSTEDHSKWCVSPKGPWTCVGDMNRNQGEEQRGGGTLCAQLPALWKAFQPLVKNYQPCNGMARKPSRAYKI [DNASE2] , answer whether its solubility in G1/S (log2) meets or surpasses 0.2.
*A* Criterion met

*Q* Given the entry MSFNLQSSKKLFIFLGKSLFSLLEAMIFALLPKPRKNVAGEIVLITGAGSGLGRLLALQFARLGSVLVLWDINKEGNEETCKMAREAGATRVHAYTCDCSQKEGVYRVADQVKKEVGDVSILINNAGIVTGKKFLDCPDELMEKSFDVNFKAHLWTYKAFLPAMIANDHGHLVCISSSAGLSGVNGLADYCASKFAAFGFAESVFVETFVQKQKGIKTTIVCPFFIKTGMFEGCTTGCPSLLPILEPKYAVEKIVEAILQEKMYLYMPKLLYFMMFLKSFLPLKTGLLIADYLGILHAMDGFVDQKKKL [SDR16C5] , answer whether its solubility in G1/S (log2) meets or surpasses 0.2.
*A* Criterion not met

*Q* Given the entry MMPSRTNLATGIPSSKVKYSRLSSTDDGYIDLQFKKTPPKIPYKAIALATVLFLIGAFLIIIGSLLLSGYISKGGADRAVPVLIIGILVFLPGFYHLRIAYYASKGYRGYSYDDIPDFDD [TMEM230] , answer whether its solubility in G1/S (log2) meets or surpasses 0.2.
*A* Criterion not met

*Q* Given the entry MTDAAVSFAKDFLAGGVAAAISKTAVAPIERVKLLLQVQHASKQITADKQYKGIIDCVVRIPKEQGVLSFWRGNLANVIRYFPTQALNFAFKDKYKQIFLGGVDKRTQFWLYFAGNLASGGAAGATSLCFVYPLDFARTRLAADVGKAGAEREFRGLGDCLVKIYKSDGIKGLYQGFNVSVQGIIIYRAAYFGIYDTAKGMLPDPKNTHIVISWMIAQTVTAVAGLTSYPFDTVRRRMMMQSGRKGTDIMYTGTLDCWRKIARDEGGKAFFKGAWSNVLRGMGGAFVLVLYDEIKKYT [SLC25A5] , answer whether its solubility in G1/S (log2) meets or surpasses 0.2.
*A* Criterion not met

*Q* Given the entry MGLCKCPKRKVTNLFCFEHRVNVCEHCLVANHAKCIVQSYLQWLQDSDYNPNCRLCNIPLASRETTRLVCYDLFHWACLNERAAQLPRNTAPAGYQCPSCNGPIFPPTNLAGPVASALREKLATVNWARAGLGLPLIDEVVSPEPEPLNTSDFSDWSSFNASSTPGPEEVDSASAAPAFYSQAPRPPASPGRPEQHTVIHMGNPEPLTHAPRKVYDTRDDDRTPGLHGDCDDDKYRRRPALGWLARLLRSRAGSRKRPLTLLQRAGLLLLLGLLGFLALLALMSRLGRAAADSDPNLDPLMNPHIRVGPS [ZFPL1] , answer whether its solubility in G1/S (log2) meets or surpasses 0.2.
*A* Criterion met

*Q* Given the entry MALRACGLIIFRRCLIPKVDNNAIEFLLLQASDGIHHWTPPKGHVEPGEDDLETALRETQEEAGIEAGQLTIIEGFKRELNYVARNKPKTVIYWLAEVKDYDVEIRLSHEHQAYRWLGLEEACQLAQFKEMKAALQEGHQFLCSIEA [NUDT2] , answer whether its solubility in G1/S (log2) meets or surpasses 0.2.
*A* Criterion not met
